- Assay Name: Induction of apoptosis in human HT-29 cells assessed as viable cells at 10 uM after 24 hrs by Annexin V-FITC/propidium iodide staining based flow cytometric analysis (reference value: 80.8%)
- Format: cell-based
- Recorded Conditions: read-out: Activity
Measured Metric: viability at 24 h, 10 µM
Respond with the figure and its unit, in that order.

Recorded result, COc1ccc(NC(=O)c2cccc(/C=C3\CC(=O)N(c4ccc(C)cc4)C3=O)c2)cc1 , viability at 24 h, 10 µM: 77.2%

====

- Assay Name: Induction of apoptosis in human HT-29 cells assessed as viable cells at 1 uM after 24 hrs by Annexin V-FITC/propidium iodide staining based flow cytometric analysis (reference value: 80.8%)
- Type: cell-based
- Recorded Conditions: read-out: Activity
Measured Metric: viability at 24 h, 1 µM

Recorded result, COc1ccc(NC(=O)c2cccc(/C=C3\CC(=O)N(c4ccc(C)cc4)C3=O)c2)cc1 , viability at 24 h, 1 µM: 79.9%

====

- Test system: HT-29
- Assay Name: Induction of apoptosis in human HT-29 cells assessed as necrotic cells at 5 uM after 24 hrs by Annexin V-FITC/propidium iodide staining based flow cytometric analysis (reference value: 1.3 to 3.9%)
- Format: cell-based
- Recorded Conditions: ht-29, 24 h
Measured Metric: Activity

Recorded result, COc1ccc(NC(=O)c2cccc(/C=C3\CC(=O)N(c4ccc(C)cc4)C3=O)c2)cc1 , Activity: 0.8 to 4.7%

====

- Tested on: HT-29
- Assay Name: Induction of apoptosis in human HT-29 cells assessed as early apoptotic cells at 5 uM after 24 hrs by Annexin V-FITC/propidium iodide staining based flow cytometric analysis (reference value: 1.9 to 5.3%)
- Type: cell-based
- Recorded Conditions: ht-29, 24 h
Measured Metric: Activity

Recorded result, COc1ccc(NC(=O)c2cccc(/C=C3\CC(=O)N(c4ccc(C)cc4)C3=O)c2)cc1 , Activity: 1.2 to 5.4%

====

- Assay Name: Induction of apoptosis in VEGF-stimulated HUVEC assessed as viable cells at 5 uM after 24 hrs by Annexin V-FITC/propidium iodide staining based flow cytometric analysis (reference value: 69.6%)
- Format: cell-based
- Recorded Conditions: human, read-out: Activity
Measured Metric: viability at 24 h, 5 µM (%)
Provide only the numeric value, understood in %.

Recorded result, COc1ccc(NC(=O)c2cccc(/C=C3\CC(=O)N(c4ccc(C)cc4)C3=O)c2)cc1 , viability at 24 h, 5 µM: 75.4

====

- Assay Name: Induction of apoptosis in human HT-29 cells assessed as viable cells at 5 uM after 48 hrs by Annexin V-FITC/propidium iodide staining based flow cytometric analysis (reference value: 81.1%)
- Assay type: cell-based
- Recorded Conditions: read-out: Activity
Measured Metric: viability at 48 h, 5 µM (%)
Provide only the numeric value, understood in %.

Recorded result, COc1ccc(NC(=O)c2cccc(/C=C3\CC(=O)N(c4ccc(C)cc4)C3=O)c2)cc1 , viability at 48 h, 5 µM: 76.1

====

Please provide measured pIC50 for the entries that follow.
- System: HCT-116
- Assay Name: Cytotoxicity against human HCT116 cells assessed as reduction in cell growth after 72 hrs by MTT assay
- Assay type: cell-based
- Recorded Conditions: HCT-116, 72 h
pIC50: −log10 of the molar value.

Recorded result, CCc1ccc(NC(=O)c2cccc(/C=C3\CC(=O)N(c4ccccc4)C3=O)c2)cc1 , pIC50: < 4.00

Recorded result, O=C(Nc1ccc(Cl)cc1)c1cccc(/C=C2\CC(=O)N(c3ccccc3)C2=O)c1 , pIC50: < 4.00

Recorded result, O=C(c1cccc(/C=C2\CC(=O)N(c3ccccc3)C2=O)c1)N1CCOCC1 , pIC50: < 4.00

Recorded result, CCc1cccc(NC(=O)c2cccc(/C=C3\CC(=O)N(c4ccc(C)cc4)C3=O)c2)c1 , pIC50: 4.38

Recorded result, CCOc1ccc(NC(=O)c2cccc(/C=C3\CC(=O)N(c4ccccc4)C3=O)c2)cc1 , pIC50: 4.07

Recorded result, COc1cc(NC(=O)c2cccc(/C=C3\CC(=O)N(c4ccccc4)C3=O)c2)cc(OC)c1OC , pIC50: < 4.00

Recorded result, COc1ccc(OC)c(NC(=O)c2cccc(/C=C3\CC(=O)N(c4ccccc4)C3=O)c2)c1 , pIC50: < 4.00

Recorded result, COc1ccc(NC(=O)c2cccc(/C=C3\CC(=O)N(c4ccccc4)C3=O)c2)c(C)c1 , pIC50: < 4.00

Recorded result, CSc1cccc(NC(=O)c2cccc(/C=C3\CC(=O)N(c4ccccc4)C3=O)c2)c1 , pIC50: 4.19
